meta.source: patent US20260167721A1

TARGET OF ASSAY: T1, recombinant human CD3 epsilon/gamma heterodimer (human, UniProt P07766 23-126; P09693 23-116)
T1 construct: Recombinant heterodimer used as analyte in Octet; also called hCD3 E/G
T1 sequence (P07766 23-126, chain 1 of 2): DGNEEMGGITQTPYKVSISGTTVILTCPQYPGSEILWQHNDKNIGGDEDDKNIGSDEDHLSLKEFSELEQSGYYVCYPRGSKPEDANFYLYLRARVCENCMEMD
T1 sequence (P09693 23-116, chain 2 of 2): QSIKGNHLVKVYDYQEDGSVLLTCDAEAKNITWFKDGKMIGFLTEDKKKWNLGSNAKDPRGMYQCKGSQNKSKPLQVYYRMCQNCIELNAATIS
ASSAY NOTES: BLI (Octet), mAb 5 ug/mL on FAB2G sensor, hCD3 E/G 200-50 nM;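 further: antibodies purified from hybridoma supernatants, measured by Octet binding to recombinant human CD3 protein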
ENDPOINT LABEL: kon (M⁻¹ s⁻¹)
Give the value in M⁻¹ s⁻¹ but do not write M⁻¹ s⁻¹ after it.

# example entries with known answers
ABL-CD3-79 (antibody, V domains shown, mAb purified from hybridoma; chimeric AlivaMab IgG (human VH, CH1 and upper hinge; mouse middle hinge, CH2, CH3; human light chain)) VH: EVQLVESGGGLVKPGGSLRLSCAASGFTVSNYSMNWVRQAPGKGLEWVSCISRSSSYIYYADSVKGRFTISRDNAKNSLFLQMNSLRAEDTAVYYCARERWELLYFDYWGQGTLVTVSS VL: QTVVTQEPSFSVSPGGTVTLTCGLSSGSVSTSYYPSWYQQTPGQAPRTLIYSTNTRSSGVPDRFSGSILGNKAALTITGAQADDESDYYCVLYMGSGIWVFGGGTKLTVL : 393000
ABL-CD3-87 (antibody, V domains shown, mAb purified from hybridoma; chimeric AlivaMab IgG (human VH, CH1 and upper hinge; mouse middle hinge, CH2, CH3; human light chain)) VH: EVQLVESGGGLVKFGGSLRLSCAASGFTFSRYSMNWVRQAPGKGLEWVSSISSSSSYKYYADSVKGRFTISRDNAKNSLYLQMNSLRAEDTAVYYCAREGGNSHGMDVWGQGTTVTVSS VL: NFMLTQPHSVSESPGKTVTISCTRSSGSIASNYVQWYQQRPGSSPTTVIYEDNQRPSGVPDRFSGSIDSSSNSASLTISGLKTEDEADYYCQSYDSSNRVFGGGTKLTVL : 214000
ABL-CD3-72 (antibody, V domains shown, mAb purified from hybridoma; chimeric AlivaMab IgG (human VH, CH1 and upper hinge; mouse middle hinge, CH2, CH3; human light chain)) VH: EVQLVESGGGLVKPGGSLRLSCAASGFTFSTYIMNWVRQAPGKGLEWVSSISSSRSYIYYADSVKGRFTISRDNAKNSLYLQMNSLRAEDTAVYYCAREDRYRLFFDYWGQGTLVTVSS VL: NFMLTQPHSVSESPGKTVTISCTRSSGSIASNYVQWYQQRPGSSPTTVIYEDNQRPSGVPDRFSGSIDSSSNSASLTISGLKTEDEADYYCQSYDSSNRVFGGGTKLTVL : 476000
ABL-CD3-73 (antibody, V domains shown, mAb purified from hybridoma; chimeric AlivaMab IgG (human VH, CH1 and upper hinge; mouse middle hinge, CH2, CH3; human light chain)) VH: EVQLVESGGGLVKPGGSLRLSCAASGFTITSYSMNWVRQAPGKGLEWVSTFSRSSTYIYYADSVKGRFTISRDNAKNSLYLQMNSLRAEDTAVYYCAREKWDLLYFDYWGQGTLVTVSS VL: NFMLTQPHSVSESPGKTVTISCTRSSGSIASNYVQWYQQRPGSSPTTVIYEDNRRPSGVPDRFSGSIDSSSNSASLTISGLKTEDEADYYCQSYDNSNRVFGGGTTLTVL : 77000

INPUT: What kon value was documented for this binder, ABL-CD3-75 (antibody, V domains shown, mAb purified from hybridoma; chimeric AlivaMab IgG (human VH, CH1 and upper hinge; mouse middle hinge, CH2, CH3; human light chain)) VH: EVQLVESGGGLVKPGGSLRLSCAASGFTFSTYSLNWVRQAPGKGLEWVSSISVSSRYIYFADSVKGRFTISRDNAKNSLYLQMNSLRAEDTAVYYCARDRRELLLDYWGQGTLVTVSS VL: SYELTQPPSVSVSPGQTARITCSGDALPKKYAYWYQQKSGQAPVLVIYEDSKRPSGIPERFSGSSSGTMATLTISGAQVEDEADYYCYSTDSSGNHNWVFGGGTKLTVL ?
OUTPUT: 373000
